Tested on: Soluble extracts of P. vinckei
Assay: Proteolytic activity of P. vinckei soluble extracts, substrate Z-Phe-Arg-AFC
Assay type: biochemical
Conditions: read-out: IC50, proteolytic activity of P. vinckei extract

[
  {
    "compound": "NC(=NCCCC(NC(=O)C(Cc1ccccc1)NC(=O)N1CCOCC1)C(=O)COc1ccccc1)N[N+](=O)[O-] (stereo not drawn)",
    "units_text": "nM",
    "IC50": 110
  },
  {
    "compound": "CC(C)C[C@H](NC(=O)N1CCOCC1)C(=O)N[C@@H](CCc1ccccc1)C(=O)COc1ccccc1",
    "units_text": "nM",
    "IC50": 15
  },
  {
    "compound": "O=C(O)Cc1ccccc1OCC(=O)[C@H](CCc1ccccc1)NC(=O)[C@H](Cc1ccccc1)NC(=O)N1CCOCC1",
    "units_text": "nM",
    "IC50": 5.1
  }
]
